Test: Solubility of stocks in water
Details: thermodynamic from solid
Counter-ions that a name gives are not always drawn.
Listed below: solubility values for each entry.

| Compound | solubility |
| --- | --- |
| CC[C@H]1C[C@@H]2C[C@H]3c4[nH]c5ccc(O)cc5c4CCN(C2)[C@@H]13 [Noribogaine, Noribogaine HCl] | ≥ 1000 µM |

Please find the next compound below.
Sure, the documented solubility for `COCC[C@H]1CC2CN3CCc4c([nH]c5ccccc45)[C@](C(=O)OC)(C2)[C@H]13` is ≥ 1000 µM

* * *

// μ-opioid receptor (MOR) (Rattus norvegicus, UniProt P33535) IC50 records
Where a name gives a salt, the structure may show the parent alone.
Write down the numeric answer in µM and omit the unit.

| Compound | IC50 [µM] |
| --- | --- |
| CC[C@H]1C[C@@H]2C[C@H]3c4[nH]c5ccc(O)cc5c4CCN(C2)[C@@H]13 [Noribogaine, Noribogaine HCl] | 84 |

Entry COCC[C@H]1CC2CN3CCc4c([nH]c5ccccc45)[C@](C(=O)OC)(C2)[C@H]13 [18-MC, 18-methoxycoronaridine] , tested on μ-opioid receptor (MOR) (Rattus norvegicus, UniProt P33535), has a reported IC50 of 83.3

* * *

Target: mouse mMOR (Mus musculus, UniProt P42866)
Sequence (P42866 whole entry): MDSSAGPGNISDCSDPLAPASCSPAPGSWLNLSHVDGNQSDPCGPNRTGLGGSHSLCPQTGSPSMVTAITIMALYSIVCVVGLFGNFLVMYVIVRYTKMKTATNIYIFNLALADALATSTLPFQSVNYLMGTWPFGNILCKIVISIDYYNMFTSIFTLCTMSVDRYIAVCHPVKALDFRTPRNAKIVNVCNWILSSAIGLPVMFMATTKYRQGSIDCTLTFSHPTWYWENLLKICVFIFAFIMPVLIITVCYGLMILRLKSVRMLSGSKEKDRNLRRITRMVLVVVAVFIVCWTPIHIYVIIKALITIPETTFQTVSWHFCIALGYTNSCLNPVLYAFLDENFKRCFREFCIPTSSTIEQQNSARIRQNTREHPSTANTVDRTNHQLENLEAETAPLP
Experiment: [35S]GTPγS binding in mMOR-expressing HEK 293 cells (Reith lab)
Where a name gives a salt, the structure may show the parent alone.
Reported EC50 values for a set of compounds
Numeric only. Scale: µM

| Compound | Unit string | EC50 |
| --- | --- | --- |
| COCC[C@H]1CC2CN3CCc4c([nH]c5ccccc45)[C@](C(=O)OC)(C2)[C@H]13 | µM | 3.42 |

Short answer for CC[C@H]1C[C@@H]2C[C@H]3c4[nH]c5ccc(O)cc5c4CCN(C2)[C@@H]13 [Noribogaine, Noribogaine HCl] : EC50 was 7.42

* * *

Catalogue of compounds with associated Ki
Molecular target: mouse mMOR (Mus musculus)
Experiment: [35S]GTPγS binding in mMOR-expressing HEK 293 cells (Reith lab)
Counter-ions that a name gives are not always drawn.
Write the number in µM without appending the unit.

| Compound | Ki / µM |
| --- | --- |
| COCC[C@H]1CC2CN3CCc4c([nH]c5ccccc45)[C@](C(=O)OC)(C2)[C@H]13 [18-MC, 18-methoxycoronaridine] | 19.1 |

# Ki (compound: CC[C@H]1C[C@@H]2C[C@H]3c4[nH]c5ccc(O)cc5c4CCN(C2)[C@@H]13 [Noribogaine, Noribogaine HCl] ) is 38.3

Value source: paper PMC3818563
